# Tested on: PC-3
# PROTOCOL: In vitro tumor cell proliferation, PC-3
# Assay type: cell-based, human
# CONDITION_NOTES: values marked * (mark not explained); dihydrochloride; read-out: In vitro Tumor Cell Proliferation (IC50, μM) Prostate PC-3
Counter-ions that a name gives are not always drawn.
QUANTITY_NAME: IC50 (µM)

Would you please look over these solved cases?
> print(dat)
                                   compound  recorded.value
1  N[C@H]1CC[C@H](Nc2nc(NCc3ccncc3)c3ncn(C4CCCC4)c3n2)CC1 [Example 8, dihydrochloride]             5.4
2  N[C@H]1CC[C@H](Nc2nc(NNCCc3ccccc3)c3ncn(C4CCCC4)c3n2)CC1 [Example 35, dihydrochloride]             4.4
3  N[C@H]1CC[C@H](Nc2nc(NCc3ccco3)c3ncn(C4CCCC4)c3n2)CC1 [Example 38, dihydrochloride]             1.7
4  N[C@H]1CC[C@H](Nc2nc(NCc3nc4ccccc4[nH]3)c3ncn(C4CCCC4)c3n2)CC1 [Example 19, dihydrochloride]             1.5
5  CC(CCCC(C)(C)O)Nc1nc(N[C@H]2CC[C@H](N)CC2)nc2c1ncn2C1CCCC1 (relative stereo) [Example 54, dihydrochloride]             0.8
6  N[C@H]1CC[C@H](Nc2nc(NCCCN3CCOCC3)c3ncn(C4CCCC4)c3n2)CC1 [Example 9, dihydrochloride]             3.1
7  N[C@H]1CC[C@H](Nc2nc(NCCCCCO)c3ncn(C4CCCC4)c3n2)CC1 [Example 25, dihydrochloride]             2.3
8  CCCCCCCCNc1nc(N[C@H]2CC[C@H](N)CC2)nc2c1ncn2C1CCCC1 [Example 20, dihydrochloride]             1.8

[A] N[C@H]1CC[C@H](Nc2nc(NCCCCc3ccccc3)c3ncn(C4CCCC4)c3n2)CC1 [Example 21, dihydrochloride]
[B] N[C@H]1CC[C@H](Nc2nc(NCCc3ccccn3)c3ncn(C4CCCC4)c3n2)CC1 [Example 12, dihydrochloride]
Problem: Kindly identify which of A and B has the larger recorded IC50 value. To answer, give the label that identifies your chosen option.
Result: B
(B: 6.1 µM, A: 0.8 µM)

###

# System: PC-3
# PROTOCOL: In vitro tumor cell proliferation, PC-3
# Assay type: cell-based, human
# CONDITION_NOTES: values without *; dihydrochloride; read-out: In vitro Tumor Cell Proliferation (IC50, μM) Prostate PC-3
Counter-ions that a name gives are not always drawn.
QUANTITY_NAME: IC50 (µM)

Would you please look over these solved cases?
> print(dat)
                                   compound  test.target  quantity.name  recorded.value
1  N[C@H]1CC[C@H](Nc2nc(NCCc3ccccc3)c3ncn(C4CCCC4)c3n2)CC1 [Example 43, dihydrochloride]         PC-3           IC50            0.92
2  N[C@H]1CC[C@H](Nc2nc(NCC3CCCCO3)c3ncn(C4CCCC4)c3n2)CC1 (relative stereo) [Example 30, dihydrochloride]         PC-3           IC50             2.3
3  C[C@@H](Nc1nc(NC2CCC(N)CC2)nc2c1ncn2C1CCCC1)c1ccccc1 (stereo partly shown) [Example 16, dihydrochloride]         PC-3           IC50             2.8

[P] N[C@H]1CC[C@H](Nc2nc(NCCCn3ccnc3)c3ncn(C4CCCC4)c3n2)CC1 [Example 46, dihydrochloride]
[Q] N[C@H]1CC[C@H](Nc2nc(NCc3ccc(Cl)c(Cl)c3)c3ncn(C4CCCC4)c3n2)CC1 [Example 10, dihydrochloride]
[R] N[C@H]1CC[C@H](Nc2nc(NCc3ccccc3)c3ncn(C4CCCC4)c3n2)CC1 [Example 47, dihydrochloride]
Problem: Reorder: IC50, max to min. Write the labels, ordered according to the request.
Result: P, R, Q

// provenance: patent US6413974B1
